FYI, the data here is from patent US8053460B2.

# System: NCI-H460 non-small cell carcinoma cells
# assay-procedure: Cytotoxicity (sulphorodamine B) on NCI-H460 tumour cells
# Format: cell-based
# experimental-conditions: Homo sapiens; range stated jointly for NCI-H460 non-small cell lung cancer and HCT-116 colon cancer; read-out: IC50 values on NCI-H460 and HCT-116 (range given)
pIC50: −log10 of the molar value.
Below, each entry is listed with its recorded pIC50.

Example cases with answers are listed next.
>>> print(df.to_string())
                                   compound  value_measured
0  O=C(CCCCCC(c1c[nH]c2cccc(F)c12)c1c[nH]c2cccc(F)c12)NO    6.15 to 6.57
1  COc1cccc2c(C(CCCCCC(=O)NO)c3c[nH]c4c(OC)cccc34)c[nH]c12    6.15 to 6.57
2  Cc1ccc2[nH]cc(C(CCCCCC(=O)NO)c3c[nH]c4ccc(C)cc34)c2c1    6.15 to 6.57
3  O=C(CCCCCC(C1C=Nc2ccc(CN3CCOCC3)cc21)C1C=Nc2ccc(CN3CCOCC3)cc21)NO (stereo not drawn)    5.24 to 6.22
4  O=C(CCCCC(c1c[nH]c2ccccc12)c1c[nH]c2ccccc12)NO    5.24 to 6.22
5  O=C(CCCCCC(c1c[nH]c2ccccc12)c1c[nH]c2ccccc12)NO    5.24 to 6.22
6  O=C(CCCCCCC(c1c[nH]c2ccccc12)c1c[nH]c2ccccc12)NO    5.24 to 6.22
7  O=C(C=Cc1ccc(C(c2c[nH]c3ccccc23)c2c[nH]c3ccccc23)cc1)NO    5.24 to 6.22

Now let's try a different one.
## Input Which measured pIC50 value corresponds to O=C(CCCCCC(c1cc2ccccc2[nH]1)c1c[nH]c2ccccc12)NO (stereo not drawn) ?
## Output 5.24 to 6.22
